Test: Entrapment and RNA concentration of RSV-F replicon liposomes (Quant-iT RiboGreen)
Type: physicochemical
Settings: RSV-F replicon LNP prepared for 1st IM
OUTCOME_MEASURE: % E (% entrapment)

molecule="CCCCC/C=C\\C/C=C\\CCCCCCCCC(CCCOC(=O)CCC(=O)OC(CCCCCCCC)CCCCCCCC)OC(=O)OCCCN(C)C (centres unmarked)" outcome_measure="% E (% entrapment)" result=87.48%
molecule="CCCCC/C=C\\C/C=C\\CCCCCCCC(=O)OCC(COC(=O)CCCCCCC/C=C\\C/C=C\\CCCCC)OC(=O)C(CCCCCCCCCCCC)OC(=O)OCCCN(C)C (centres unmarked)" outcome_measure="% E (% entrapment)" result=85.91%
molecule="CCCCCCCCCC(=O)OCCC(CC(CCCCCCCC)CCCCCCCC)OC(=O)OCCCN(C)C (centres unmarked)" outcome_measure="% E (% entrapment)" result=90.75%

Which measured % E (% entrapment) value corresponds to CCCCCCCCCCCCC(CCCOC(=O)CCCCC(COC(=O)CCCCCCC)COC(=O)CCCCCCC)OC(=O)C1(C)CCN(C)CC1 (centres unmarked) ?
85.31%

Okay, and CCCCCCCCCCCCC(CCOC(=O)CCCCC(OCC(CCC)CCC)OCC(CCC)CCC)OC(=O)OCCCN(C)C (centres unmarked) ?
95.76%

Okay, and CCCCCCCCCCCCC(CCOC(=O)CCCCC(COC(=O)CCCCCCC)COC(=O)CCCCCCC)OC(=O)OCCCN(CC)CC (centres unmarked) ?
91.11%

Okay, and CCCCC/C=C\C/C=C\CCCCCCCC(=O)OCC(COC(=O)CCCCCCC/C=C\C/C=C\CCCCC)COC(=O)CCC(CCCCCCCCCCCC)OC(=O)OCCCN(C)C (centres unmarked) ?
85.22%

Okay, and CCCCCCCCCCCCC(CCOC(=O)CCCCC(OCC(CC)CCCC)OCC(CC)CCCC)OC(=O)OCCCN(CC)CC (centres unmarked) ?
96.15%

###

Experiment: siRNA encapsulation in lipid nanoparticles (SYBR Gold)
Assay type: physicochemical
Details: Table 2; FVII siRNA in LNP with the cationic lipid
OUTCOME_MEASURE: % encapsulation siRNA FVII (%)
Report the figure in % without appending any unit label.

Observe how each entry below is paired with its result.
compound="CCCCCCCCCCCCC(CCOC(=O)CCCCCCC(OCC(CCC)CCC)OCC(CCC)CCC)OC(=O)OCCCN(C)CC (centres unmarked)" number=91.7
compound="CCCCCCCCCCCCC(CCC(=O)OC(COC(=O)CCCCCCCCCCC)COC(=O)CCCCCCCCCCC)OC(=O)OCCCN(C)C (centres unmarked)" number=77.5
compound="CCCCC/C=C\\C/C=C\\CCCCCCCC(=O)OCCCCC(CC(CCCCCCCC)CCCCCCCC)OC(=O)OCCCN(C)C (centres unmarked)" number=62.5
compound="CCCCCCCCCCCCCC(=O)OCC(COC(=O)CCCCCCCCCCCCC)OC(=O)CCC(CCCCCCCCCCCC)OC(=O)OCCCN(CC)CC (centres unmarked)" number=77.5
compound="CCCCCCCCCCCCC(CCOC(=O)CCC(COC(=O)CCCCCCC)COC(=O)CCCCCCC)OC(=O)OCCCN(CC)CC (centres unmarked)" number=88.6
compound="CCCCC/C=C\\C/C=C\\CCCCCCCC(=O)OCC(COC(=O)CCCCCCC/C=C\\C/C=C\\CCCCC)OC(=O)CCC(CCCCCCCCCCCC)OC(=O)OCCCN(CC)CC (centres unmarked)" number=48.8
compound="CCCCCCCCC(CCCCCCCC)CC(=O)OCCC(CCCCCCCCCCOC(=O)CCCCCCC)OC(=O)OCCCN(C)C (centres unmarked)" number=85.5
compound="CCCCCCCCCC(=O)OCCC(CC(CCCCCCCC)CCCCCCCC)OC(=O)OCCCN(C)C (centres unmarked)" number=80.0
compound="CCCCCCCCCCCCC(CCOC(=O)CCCCCCC(OCC(CCC)CCC)OCC(CCC)CCC)OC(=O)OCCCN(CC)CC (centres unmarked)" number=91.2
compound="CCCCCCCC(CCCCCCC)CCCC(=O)OCCC(CCCCCCCCCCO)OC(=O)OCCCN(C)C (centres unmarked)" number=75.2

Which measured % encapsulation siRNA FVII value corresponds to CCCCC/C=C\C/C=C\CCCCCCCCC(COCCOC(=O)CCCCCCC/C=C\C/C=C\CCCCC)OC(=O)CCN(C)C (centres unmarked) ?
90.2

Okay, and CCCCCCCCCCCCC(CCOC(=O)CCCCCCC(OCC(CCC)CCC)OCC(CCC)CCC)OC(=O)OCCCN(C)C (centres unmarked) ?
92.0

Okay, and CCCCCCCCCCCCC(CCOC(=O)CCCCC(OCCCCCCCC)OCCCCCCCC)OC(=O)OCCCN(CC)CC (centres unmarked) ?
88.9

Okay, and CCCCCCCCCCCCC(COC(=O)CCC(OCC(CC)CCCC)OCC(CC)CCCC)OC(=O)OCCCN(CC)CC (centres unmarked) ?
89.3

###

Catalogue of compounds with associated % encapsulation mRNA Leptin
Assay: Percent encapsulation of mRNA in lipid nanoparticles (Quant-iT Ribogreen)
Assay type: physicochemical
Settings: Table 2; leptin mRNA in LNP with the cationic lipid
Report the figure in % without appending any unit label.

Which measured % encapsulation mRNA Leptin value corresponds to CC/C=C\C/C=C\C/C=C\CCCCCCCC(=O)OCC(COC(=O)CCCCCCC/C=C\C/C=C\C/C=C\CC)OC(=O)CCC(CCCCCCCCCCCC)OC(=O)OCCCN(C)C (stereo not shown) ?
81.9

Okay, and CCCCCCCCCCCCC(CCOC(=O)CCCCCCC(OCC(CCC)CCC)OCC(CCC)CCC)OC(=O)OCCCN(C)CC (stereo not shown) ?
99.2

Okay, and CCCCCCCCCCCCC(CCOC(=O)CCCCC(OCCCCCCCC)OCCCCCCCC)OC(=O)OCCCN(CC)CC (stereo not shown) ?
97.7

Okay, and CCCCCCCCCCCCC(CCOC(=O)CCCCC(OCC(CCC)CCC)OCC(CCC)CCC)OC(=O)OCCCN(C)C (stereo not shown) ?
97.8

Okay, and CCCCCCCCCCCCC(CCOC(=O)CCCCC1OC(CCCCCCC)CC(CCCCCCC)O1)OC(=O)OCCCN(CC)CC (stereo not shown) ?
98.0

Okay, and CCCCCCCCCCCCC(CCCOC(=O)CCCCC(COC(=O)CCCCCCC)COC(=O)CCCCCCC)OC(=O)C1(C)CCN(C)C1 (stereo not shown) ?
95.5

Okay, and CCCCCCCCCCCCC(CCOC(=O)CCCCC(OCCCCCCCC)OCCCCCCCC)OC(=O)CCC1CCN(C)CC1 (stereo not shown) ?
71.2

###

Test: Particle size and polydispersity by DLS of RSV-F replicon LNPs
Type: physicochemical
Conditions: RSV-F replicon LNP prepared for 2nd IM
Catalogue of compounds with associated Size
Report the figure in nm without appending any unit label.

compound="CCCCCCCCCCCCC(CCOC(=O)CCCCC(COC(=O)CCCCCCC)COC(=O)CCCCCCC)OC(=O)OCCCN(CC)CC (stereo not shown)" outcome_measure=Size number=131.3
compound="CCCCCCCCCCCCC(CCOC(=O)CCCCC(OCC(CCC)CCC)OCC(CCC)CCC)OC(=O)OCCCN(C)C (stereo not shown)" outcome_measure=Size number=130.9

Which measured Size value corresponds to CCCCCCCCCCCCC(CCCOC(=O)CCCCC(COC(=O)CCCCCCC)COC(=O)CCCCCCC)OC(=O)C1(C)CCN(C)CC1 (stereo not shown) ?
143.5

Okay, and CCCCCCCCCCCCC(CCOC(=O)CCCCC(OCC(CC)CCCC)OCC(CC)CCCC)OC(=O)OCCCN(CC)CC (stereo not shown) ?
139.8

###

Assay: Percent encapsulation of mRNA in lipid nanoparticles (Quant-iT Ribogreen)
Format: physicochemical
Details: mEPO mRNA
Catalogue of compounds with associated % Encap.
Report the figure in % without appending any unit label.

Which measured % Encap. value corresponds to CCCCC/C=C\C/C=C\CCCCCCCCC(CCC(=O)OC(COC(=O)CCCCCCC)COC(=O)CCCCCCC)OC(=O)OCCCN(C)C (stereo not shown) [Example 94] ?
96.4

###

Assay: Particle size and PDI of lipid nanoparticles by dynamic light scattering (Malvern Zetasizer)
Format: physicochemical
Conditions: FLuc mRNA LNP
OUTCOME_MEASURE: Size
A complete answer gives the number followed by the unit.

Observe how each entry below is paired with its result.
compound="CCCCC/C=C\\C/C=C\\CCCCCCCC(=O)OCC(COC(=O)CCCCCCC/C=C\\C/C=C\\CCCCC)OC(=O)CCC(CCCCCCCCCCCC)OC(=O)OCCCN(C)C (stereo not shown) [Example 80]" outcome_measure=Size result="193.5 nm"
compound="CCCCCCCCCCCCC(CCOC(=O)CCCCC(OCCCCCCCC)OCCCCCCCC)OC(=O)OCCCN(CC)CC (stereo not shown) [Example 16]" outcome_measure=Size result="106.7 nm"
compound="CCCCC/C=C\\C/C=C\\CCCCCCCCC(CCC(=O)OC(COC(=O)CCCCCCC)COC(=O)CCCCCCC)OC(=O)OCCCN(C)C (stereo not shown) [Example 94]" outcome_measure=Size result="129.2 nm"

Now turn to the next compound.
Which measured Size value corresponds to CCCCCCCCCCCCC(CCOC(=O)CCCCC(COC(=O)CCCCCCC)COC(=O)CCCCCCC)OC(=O)OCCCN(CC)CC (stereo not shown) [Example 1] ?
108.8 nm
